Test system: rabbit aortic rings
Test: Assay B: In Vitro Vascular Smooth Muscle-Response for AII (antagonist activity in rabbit aortic rings)
Format: cell-based, rabbit (male New Zealand white)
Conditions: Oryctolagus cuniculus, rabbit aorta rings; antagonist at 10^-5 M; second of two values; read-out: PA2 (converted)
Kb less than 4 nM is true; Kb greater than or equal to 4 nM is false.

{"COMPOUND": "CCCCCc1nc(CCCCC)n(Cc2ccc(-c3ccccc3-c3nnn[nH]3)cc2)n1 [Example 13]", "SYSTEM_NAME": "rabbit aortic rings", "ASSIGNED_LABEL": "true"}
{"COMPOUND": "CCCCc1nc(CCC)n(Cc2ccc(-c3ccccc3-c3nnn[nH]3)cc2)n1 [Example 15]", "SYSTEM_NAME": "rabbit aortic rings", "ASSIGNED_LABEL": "false"}
{"COMPOUND": "CCCCc1nc(C(F)(F)CCC)n(Cc2ccc(-c3ccccc3-c3nnn[nH]3)cc2)n1 [Example 11]", "SYSTEM_NAME": "rabbit aortic rings", "ASSIGNED_LABEL": "false"}
{"COMPOUND": "CCCCc1nc(C(F)(F)CCC)nn1Cc1ccc(-c2ccccc2-c2nnn[nH]2)cc1 [Example 10]", "SYSTEM_NAME": "rabbit aortic rings", "ASSIGNED_LABEL": "false"}
{"COMPOUND": "CCCc1nc(CCC)n(Cc2ccc(-c3ccccc3-c3nnn[nH]3)cc2)n1 [Example 12]", "SYSTEM_NAME": "rabbit aortic rings", "ASSIGNED_LABEL": "true"}
{"COMPOUND": "CCCCc1nc(CCC(C)C)n(Cc2ccc(-c3ccccc3-c3nnn[nH]3)cc2)n1 [Example 16]", "SYSTEM_NAME": "rabbit aortic rings", "ASSIGNED_LABEL": "true"}
{"COMPOUND": "CCCCc1nc(CCC)nn1Cc1ccc(-c2ccccc2-c2nnn[nH]2)cc1 [Example 14]", "SYSTEM_NAME": "rabbit aortic rings", "ASSIGNED_LABEL": "true"}
